Measured metric: melting point

Lookup: Return reported melting point; argument: CCCN1C(=O)CCc2cc(CNS(=O)(=O)c3ccc4ccccc4c3)ccc21
Found: 169 to 173 °C

Lookup: Item under review: CCCN1C(=O)CCc2cc(CNS(=O)(=O)c3ccc(C)cc3)ccc21 . Reported melting point?
Found: 153 to 154 °C

Lookup: // query melting point value for entry CCCN1C(=O)CCc2cc(CNS(=O)(=O)c3cccs3)ccc21
Found: 151 to 153 °C

Lookup: Would you kindly share the measured melting point for CCCn1c(=O)ccc2cc(CNS(=O)(=O)c3ccccc3)ccc21 ?
Found: 204 to 206 °C

Lookup: Param item = CCCN1C(=O)CCc2cc(CNS(=O)(=O)c3ccccc3C)ccc21 ; retrieve measured melting point.
Found: 163 to 165 °C

Lookup: Endpoint output: melting point of CCN1C(=O)CCc2cc(CNS(=O)(=O)c3ccc(C)cc3)ccc21 . Value?
Found: 202 to 203 °C

Lookup: Entry CCCN1C(=O)CCc2cc(CNS(=O)(=O)/C=C/c3cccc(Br)c3)ccc21 : reported melting point = ?
Found: 148 to 153 °C

Lookup: Query: melting point; subject: CCCN1C(=O)CCc2cc(CNS(=O)(=O)c3cc(Cl)sc3Cl)ccc21
Found: 131 to 134 °C

Lookup: Could you share which melting point value was measured for CCN1C(=O)CCc2cc(CNS(=O)(=O)c3ccc(C)cc3C)ccc21 ?
Found: 199 to 200 °C

----------
system: soybean plants (variety S20-G7); assay: Reduced plant water use in soybean (foliar spray, repeated weighing of pots); format: in vivo; details: Glycine max, foliar, 48 h, Table B1, sprayed at 500 μM, vs negative control, 2 DAA p.m. (14:00-19:50), read-out: % WU 2 DAA PM
Measured metric: change in vivo at 500 µM (%)
Value expressed in %; do not type the unit.

1) CCN1C(=O)CC(C)c2cc(CNS(=O)(=O)c3ccccc3)cc(C)c21 (stereo not drawn) [Compound 16.001]; -44.5
2) CCCN1C(=O)CCc2cc(CNS(=O)(=O)c3ccc4ccccc4c3)ccc21 [Compound 3.075]; -2
3) CCCN1C(=O)CCc2cc(CNS(=O)(=O)c3cccs3)ccc21 [Compound 3.072]; -32.2
4) C=CCN1C(=O)CCc2cc(CNS(=O)(=O)c3ccccc3)ccc21 [Compound 5.001]; -15.6
5) CCN1C(=O)CCc2cc(CNS(=O)(=O)c3ccccc3)ccc21 [Compound 2.001]; -14.3

Lookup: Data request, read-out change in vivo at 500 µM, for COCCN1C(=O)CCc2cc(CNS(=O)(=O)c3ccccc3)ccc21 [Compound 13.001]
Found: -9.2

Lookup: // change in vivo at 500 µM lookup, key: CCN1C(=O)CCc2cc(CNS(=O)(=O)c3ccc(F)cc3)ccc21 [Compound 2.009]
Found: -1

Lookup: If you can, please state the reported change in vivo at 500 µM value of CCCN1C(=O)CCc2cc(CNS(=O)(=O)c3ccsc3)ccc21 [Compound 3.068] .
Found: -15.3

Lookup: Reported change in vivo at 500 µM for O=C1CCc2cc(CNS(=O)(=O)c3ccccc3)ccc2N1CC1CC1 [Compound 10.001] : what is it?
Found: -14.7

Lookup: So what's the measured change in vivo at 500 µM for this one? CCN1C(=O)CCc2cc(CNS(=O)(=O)c3ccsc3)ccc21 [Compound 2.068]
Found: -7.5

Lookup: Record request: change in vivo at 500 µM value, item CCN1C(=O)CCc2cc(CNS(=O)(=O)c3ccc(Br)cc3)ccc21 [Compound 2.002]
Found: -4.2

Lookup: For CCCN1C(=O)CCc2cc(CNS(=O)(=O)c3cc(Cl)sc3Cl)ccc21 [Compound 3.064] , what is its reported change in vivo at 500 µM?
Found: -13.5

Lookup: Requested read-out: change in vivo at 500 µM. Entry: C=CCN1C(=O)CC(C)c2cc(CNS(=O)(=O)c3ccccc3)ccc21 (stereo not drawn) [Compound 25.001]
Found: -36.7

Lookup: Given the entry CCCN1C(=O)CCc2cc(CNS(=O)(=O)c3ccc(Br)cc3)ccc21 [Compound 3.002] , report its measured change in vivo at 500 µM.
Found: -4.7

Lookup: Look up change in vivo at 500 µM: CCN1C(=O)CC(C)c2cc(CNS(=O)(=O)c3ccccc3)cc(F)c21 (stereo not drawn) [Compound 22.001]
Found: -50.1

Lookup: What value of change in vivo at 500 µM has been reported for the following compound? CCCN1C(=O)CCc2cc(CNS(=O)(=O)c3ccc(F)cc3)ccc21 [Compound 3.009]
Found: -4.2

Lookup: Look up change in vivo at 500 µM: CCCN1C(=O)CCc2cc(CNS(=O)(=O)c3ccc(Cl)s3)ccc21 [Compound 3.073]
Found: -48.7

Lookup: Field request: change in vivo at 500 µM | item: CCCN1C(=O)CCc2cc(CNS(=O)(=O)c3ccc(OC)cc3)ccc21 [Compound 3.010]
Found: -1.7
